Assay target: T1, Nt-GCGR-hFc (human, UniProt P47871 26-136)
T1 construct: domain: N-terminal domain; also called Nt-GCGR-Fc; recombinant N-terminal domain of GCGR; not shown: hFc
T1 sequence (P47871 26-136): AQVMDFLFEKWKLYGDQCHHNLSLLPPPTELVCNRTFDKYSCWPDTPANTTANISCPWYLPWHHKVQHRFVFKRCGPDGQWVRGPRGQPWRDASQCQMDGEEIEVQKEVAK
Assay remarks: scFv binding ELISA, periplasmic extract on coated Nt-GCGR
Readout label: ScFv binding ELISA signal

Some solved entries appear below for comparison.
{"columns": ["Binder", "ScFv binding ELISA signal"],
 "data": [
  ["scFv C5 (scFv) QLQLVESGGGLVEPGGSLRLSCAASGFTFSNYYMSWVRQAPGKGPEWVSSIYSDLSTTYYADSVKGRFTISRDRAKNTLYLQMNSLKSEDTAVYYCARLSTVAGVDYWGKGTLVTVSSSYELTQSPSVSVALRQTAKITCGGNNIGSKSAQWYQQKPGQAPVLVIYADSRRPSGIPERFSGSNSGNTATLTISGAQAEDEADYYCQVWDSSSNGAVFGGGTHLTVLG", 1.88],
  ["scFv A5 (scFv) ELQLVESGGGLVQPGGSLRLSCAASGSTFSTAAMSWVRQAPGKGLEWVSAISSFGASTSYADSVKGRFTISRDIAKNTLYLQMNSLKPEDAAVYYCANVGLHPSWGFTSGFWGQGTQVTVSSSSALTQPPSVSGSPGKTVTISCAGTSSDVGYGNYVSWYQQLPGMAPKLLIHDVNKRASGITDRFSGSKSGNTASLTISGLQSEDEADYYCASYRRRNEVVFGGGTHLTVLG", 1.31],
  ["scFv C1 (scFv) ELQVVESGGGLVPGGSLRLSCAASGFRVSVNAMSWVRQAPGKGLEWVSHIGSGGITGYADSVKGRFTISRDSAKNTLYLQMNSLKPEDTAVYYCTKRSSGYAWGQGTQVTVSSQAGLTQLPSVSGSPGQKITISCTGSSNNIGAGYSVQWFQQVPGSPPRLLIDGATNRDSGVPDRFSDSRSGSSASLTITGLQAEDEADYYCECYDNSLRGAVFGGGTHLTVLG", 1.54],
  ["scFv A8 (scFv) EVQVQESGPGLVKPSQTLSLTCTVSGESITTNYYYWNWIRQPPGKALEWMGAIGDSGTTWYNPSLKSRTSISRDTSKNQFTLQLISVTPEDTAVYYCARGFYDGSSLDFASWGQGTQVTVSSLSYELTQSPSVSVALRQAAKITCGGNNIASKFVNWYQQKPGQAPILVISKDTNRPSGIPERFSGSNSGNTATLTVSGAQAEDEADYYCQVWDGSAAVFGGGTHLTVLG", 1.7],
  ["scFv B8 (scFv) QVQLVESGGGLVQPGGSLRLSCATSGFTFSNYYMSWVRQAPGKGPEWVSSIYSDLSTTYYADSVKGRFTISRDRAKNTLYLQMNSLKSEDTAVYYCARLSTVAGMDYWGKGTLVTVSSSYELTQSPSVSVALRQTAKITCGGTNIGSKSAQWYQQKPGQAPMLVIYGDSRRPSGIPERFSGSNSGNTATLTISGAQAEDEADYYCQVWDSSANAAVFGGGTHLTVLG", 0.205]
]}

Record ScFv binding ELISA signal for all entries; do not skip any.
1. scFv D7 (scFv) QVQLVESGGGLVQPGGSLRLSCAASGFTFSWYAMSWVRQGPGKGLEWVSAINGGGGSTSYEDSVKGRFTISRDNAKNTLYLEMNSLKPEDTAVYYCARYSDGYSGSYTYTDMDYWGKGTLVTVSSQAVVTQEPSLSVSPGGTVTLTCGLSSGSVTSSNYPVWYQQTPGQAPHLLIYNTNTRHSGVPSRFSGFISGNKAALTITGAQPEDEADYYCASYRRSGRAVFGGGTHLTVLG
2. scFv C10 (scFv) EVQLVQPGAELRNPGASVKVSCKASGYTFTAYYIDWVRQAPGQGLEWMGRIDPEDGGTTYEQKFQGRVTFTADTSTSTVYVELSSLRSEDTAVYYCARSTEIPTIRYYGMDYWGKGTPVTVSSASAAASGSYELTQSPSVSVALRQTAKITCGGDNIGSKSAQWYQQKPGQAPVLVIYADSRRPSGIPERFSGSNSGNTATLTISGAQAEDEADYYCQVWDSSANAAVFGGGTHLTVLG
3. scFv D8 (scFv) EVQLVESEGGSVQPGDSLRLSCAASGFSFSNAGMSWVRQAPGKGLEWVSAIIPGGYAPYYADSVKGRFTISRDNAKNTVSLQMNSLKPEDTALYYCAKYGGNWDLEVWGQGTLVTVSSQSALTQPPSVSGTLGKTVTISCTGTSSDIGGYNSVSWYQQLPGTAPKLLIYEVNKRASGIPDRFSGSKSGDTASLTISGLQSADEADYYCASYRNTRKSVFGGGTHLTVLG

Marked response:
1. 0.1
2. 0.88
3. 1.14

Record ScFv binding ELISA signal for all entries; do not skip any.
1. scFv D5 (scFv) EVQVQESGGGLVQPGGSLRLSCATSGFTFSNYYMSWVRQAPGKGPEWVSSIYSDLSTTYYADSVKGRFTISRDRAKNTLYLQMNSLKSEDTAVYYCARLSTVAGVDYWGKGTLVTVSSSYELTQSPSVSVALRQTAKITCGGNNIGDKSAQWYQQKPDQAPVLVIYADNRRPSEIPERFSGSNSGDTATLTISGAQAEDEADYYCQVWDSGANAAVFGGGTHLTVLG
2. scFv A4 (scFv) QLQVVESGGGLVQPGGSLRLSCAASGFTFDSYWMYWVRQAPGKGLEWLSAINPGGGMTYYADSVKGRFTIARDNAKNTVYLQMNSLKSEDTAVYYCAKELRGSYYYISSEYDYWGQGTQVTVSSLPVLTQPPSVSGTLGKTVTISCAGTSSDIGDYNYVSWYQQLPGTAPKLLIYKVSTRASGIPDRFSGSKSGNTASLTISGLQSEDEADYYCASYRTSNNVVFGGGTHLTVLG

Marked response:
1: 0.268; 2: 0.342
